Examples of molecules with documented pEC50 follow.
molecular target: human CB2 receptors (Homo sapiens (Human), UniProt P34972); assay: cAMP assay, CHO cells expressing human CB2 receptors; format: cell-based; details: functional cAMP assay, CHO cells expressing human CB2; read-out: EC50 CB2 human
Sequence (P34972 whole entry): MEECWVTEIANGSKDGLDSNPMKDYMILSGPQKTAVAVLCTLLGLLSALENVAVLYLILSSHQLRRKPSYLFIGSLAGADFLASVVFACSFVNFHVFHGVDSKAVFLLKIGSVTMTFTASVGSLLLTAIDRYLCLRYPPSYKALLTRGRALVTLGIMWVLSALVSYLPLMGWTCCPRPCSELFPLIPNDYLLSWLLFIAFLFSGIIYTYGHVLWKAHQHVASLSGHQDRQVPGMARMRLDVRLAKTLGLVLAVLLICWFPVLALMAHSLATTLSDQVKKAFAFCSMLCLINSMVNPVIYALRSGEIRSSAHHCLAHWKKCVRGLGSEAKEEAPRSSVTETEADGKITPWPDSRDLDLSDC
pEC50: −log10 of the molar value.
MEASURE_NAME: pEC50

- SMILES_NOTATION: "C[C@@H](Oc1cc(-c2noc(C(C)(C)C)n2)ncc1C1CC1)C(F)(F)F"
  ASSAYED_TARGET: "human CB2 receptors (Homo sapiens (Human), UniProt P34972)"
  MEASURE_NAME: "pEC50"
  RECORDED_NUMBER: 7.29
- SMILES_NOTATION: "CC(C)c1noc(-c2cc(OCC(F)(F)F)c(C3CC3)cn2)n1"
  ASSAYED_TARGET: "human CB2 receptors (Homo sapiens (Human), UniProt P34972)"
  MEASURE_NAME: "pEC50"
  RECORDED_NUMBER: 8.64
- SMILES_NOTATION: "CC(C)(C)[C@H]1COC(c2cc(OCC3CC3)c(C3CC3)cn2)=N1"
  ASSAYED_TARGET: "human CB2 receptors (Homo sapiens (Human), UniProt P34972)"
  MEASURE_NAME: "pEC50"
  RECORDED_NUMBER: 8.43
- SMILES_NOTATION: "CC(C)(C)c1noc(-c2cc(OCC(F)(F)F)c(C3CC3)cn2)n1"
  ASSAYED_TARGET: "human CB2 receptors (Homo sapiens (Human), UniProt P34972)"
  MEASURE_NAME: "pEC50"
  RECORDED_NUMBER: 8.66
- SMILES_NOTATION: "CC(C)(C)c1nc(-c2cc(OCc3ccccn3)c(C3CC3)cn2)no1"
  ASSAYED_TARGET: "human CB2 receptors (Homo sapiens (Human), UniProt P34972)"
  MEASURE_NAME: "pEC50"
  RECORDED_NUMBER: 7.27
- SMILES_NOTATION: "NC(=O)C1(c2nc(-c3cc(OCC4CC4)c(C4CC4)cn3)no2)CC1"
  ASSAYED_TARGET: "human CB2 receptors (Homo sapiens (Human), UniProt P34972)"
  MEASURE_NAME: "pEC50"
  RECORDED_NUMBER: 6.87
- SMILES_NOTATION: "FC(F)(F)COc1cc(-c2nc(C(F)(F)F)no2)ncc1C1CC1"
  ASSAYED_TARGET: "human CB2 receptors (Homo sapiens (Human), UniProt P34972)"
  MEASURE_NAME: "pEC50"
  RECORDED_NUMBER: 7.67
- SMILES_NOTATION: "c1ccc(-c2noc(-c3cc(OCC4CC4)c(C4CC4)cn3)n2)cc1"
  ASSAYED_TARGET: "human CB2 receptors (Homo sapiens (Human), UniProt P34972)"
  MEASURE_NAME: "pEC50"
  RECORDED_NUMBER: 7.64
- SMILES_NOTATION: "Cc1noc(-c2cc(OCC(F)(F)F)c(N3CC(F)(F)C3)cn2)n1"
  ASSAYED_TARGET: "human CB2 receptors (Homo sapiens (Human), UniProt P34972)"
  MEASURE_NAME: "pEC50"
  RECORDED_NUMBER: 6.47
- SMILES_NOTATION: "CC(C)(C)c1nc(-c2cc(OCCF)c(C3CC3)cn2)no1"
  ASSAYED_TARGET: "human CB2 receptors (Homo sapiens (Human), UniProt P34972)"
  MEASURE_NAME: "pEC50"
  RECORDED_NUMBER: 7.81
- SMILES_NOTATION: "C[C@H](Oc1cc(-c2nnc(C(C)(C)C)o2)ncc1C1CC1)C(F)(F)F"
  ASSAYED_TARGET: "human CB2 receptors (Homo sapiens (Human), UniProt P34972)"
  MEASURE_NAME: "pEC50"
  RECORDED_NUMBER: 7.20
- SMILES_NOTATION: "Cc1noc(-c2cc(OCC3CC3)c(C3CC3)cn2)n1"
  ASSAYED_TARGET: "human CB2 receptors (Homo sapiens (Human), UniProt P34972)"
  MEASURE_NAME: "pEC50"
  RECORDED_NUMBER: 7.59
- SMILES_NOTATION: "CC(C)(C)c1nnc(-c2cc(OC3CCOCC3)c(C3CC3)cn2)o1"
  ASSAYED_TARGET: "human CB2 receptors (Homo sapiens (Human), UniProt P34972)"
  MEASURE_NAME: "pEC50"
  RECORDED_NUMBER: 7.38
- SMILES_NOTATION: "OC1(c2nc(-c3cc(OCC(F)(F)F)c(N4CC(F)(F)C4)cn3)no2)CC1"
  ASSAYED_TARGET: "human CB2 receptors (Homo sapiens (Human), UniProt P34972)"
  MEASURE_NAME: "pEC50"
  RECORDED_NUMBER: 6.75
- SMILES_NOTATION: "C[C@H](Oc1cc(-c2noc(C3CC3)n2)ncc1C1CC1)C(F)(F)F"
  ASSAYED_TARGET: "human CB2 receptors (Homo sapiens (Human), UniProt P34972)"
  MEASURE_NAME: "pEC50"
  RECORDED_NUMBER: 6.19
- SMILES_NOTATION: "FC(F)(F)COc1cc(-c2nc(C3CC3)no2)ncc1N1CC(F)(F)C1"
  ASSAYED_TARGET: "human CB2 receptors (Homo sapiens (Human), UniProt P34972)"
  MEASURE_NAME: "pEC50"
  RECORDED_NUMBER: 7.70
- SMILES_NOTATION: "CC(C)(C)c1nc(-c2cc(N3CC4(COC4)C3)c(C3CC3)cn2)no1"
  ASSAYED_TARGET: "human CB2 receptors (Homo sapiens (Human), UniProt P34972)"
  MEASURE_NAME: "pEC50"
  RECORDED_NUMBER: 7.42
- SMILES_NOTATION: "CC(C)(C)c1nc(-c2cc(OC3CCOCC3)c(C3CC3)c(Cl)n2)no1"
  ASSAYED_TARGET: "human CB2 receptors (Homo sapiens (Human), UniProt P34972)"
  MEASURE_NAME: "pEC50"
  RECORDED_NUMBER: 8.43
- SMILES_NOTATION: "CCc1nc(-c2cc(OCC3CC3)c(C3CC3)cn2)no1"
  ASSAYED_TARGET: "human CB2 receptors (Homo sapiens (Human), UniProt P34972)"
  MEASURE_NAME: "pEC50"
  RECORDED_NUMBER: 7.50

Data origin: patent US10308659B2
